System: IL-8 mRNA
Assay: RT-qPCR quantification of IL-8 mRNA in TNF-α-induced IB3-1 cells
Assay type: cell-based, human
Conditions: Homo sapiens, IB3-1, 24 h, TNF-α-induced IB3-1 cells, 1 μM compound, RT-qPCR; na = not active at the used concentrations
Quick list: inhibition at 1 µM per entry.
property name: inhibition at 1 µM (%)

[[record]]
compound = "Cc1cc2c(C)cc3oc(=O)cc(C)c3c2o1 [Compound 33]"
quantity_unit = "%"
experimental_result = 66

[[record]]
compound = "Cc1cc(=O)oc2c1cc(C)c1occ(CBr)c12 [Compound 5]"
quantity_unit = "%"
experimental_result = 33

[[record]]
compound = "Cc1c(C)c2cc(C)c3occc3c2oc1=O [Compound 28]"
quantity_unit = "%"
experimental_result = 21

[[record]]
compound = "Cc1cc2c(C)cc(=O)oc2c2c1OCC=C2 [Compound 35]"
quantity_unit = "%"
experimental_result = 56

[[record]]
compound = "Cc1cc(=O)oc2c1cc(Cl)c1occ(C)c12 [Compound 12]"
quantity_unit = "%"
experimental_result = 0

[[record]]
compound = "Cc1oc2c(C)cc3c(C)cc(=O)oc3c2c1CO [Compound 23]"
quantity_unit = "%"
experimental_result = 3

[[record]]
compound = "Cc1cc2oc(=O)cc(C)c2c2c1C=CCO2 [Compound 36]"
quantity_unit = "%"
experimental_result = 77

[[record]]
compound = "Cc1coc2c1c(C)cc1oc(=O)cc(C)c12 [Compound 32]"
quantity_unit = "%"
experimental_result = 73

[[record]]
compound = "Cc1oc2c(c(C)cc3oc(=O)cc(C)c32)c1C [Compound 34]"
quantity_unit = "%"
experimental_result = 68

[[record]]
compound = "Cc1cc(=O)oc2c1ccc1oc(CN)cc12 [Compound 26]"
quantity_unit = "%"
experimental_result = 55

[[record]]
compound = "Cc1oc2c(cc(C)c3occ(C)c32)c(=O)c1C [Compound 27]"
quantity_unit = "%"
experimental_result = 16

[[record]]
compound = "Cc1cc2c(CO)cc(=O)oc2c2c(C)coc12 [Compound 8]"
quantity_unit = "%"
experimental_result = 51

[[record]]
compound = "Cc1cc2c(o1)c1cc(C)oc1c1c(C)cc(=O)oc21 [Compound 30]"
quantity_unit = "%"
experimental_result = 10

[[record]]
compound = "O=c1cc(CO)c2ccc3sccc3c2o1 [Compound 16]"
quantity_unit = "%"
experimental_result = 18

[[record]]
compound = "Cc1oc2c(C)cc3c(C)cc(=O)oc3c2c1C [Compound 1]"
quantity_unit = "%"
experimental_result = 57

[[record]]
compound = "C=CCc1c(O)c(C)cc2c(CO)cc(=O)oc12 [Compound 38]"
quantity_unit = "%"
experimental_result = 36


###

# reported IC50; entries follow
System: IB3-1 cells
Test: Cell proliferation assay on IB3-1 cells
Type: cell-based
Settings: Homo sapiens, cell number/ml after 48 h of treatment
property name: IC50

[[record]]
smiles_entry = "Cc1cc2c(C(F)(F)F)cc(=O)oc2c2c(C)coc12"
property_name = "IC50"
experimental_result = "> 800 µM"

[[record]]
smiles_entry = "Cc1cc2c(CBr)cc(=O)oc2c2c(C)coc12"
property_name = "IC50"
experimental_result = "< 50 µM"

[[record]]
smiles_entry = "Cc1c(C)c2cc(C)c3occc3c2oc1=O"
property_name = "IC50"
experimental_result = "> 800 µM"

[[record]]
smiles_entry = "Cc1cc2c(CO)cc(=O)oc2c2c(C)coc12"
property_name = "IC50"
experimental_result = "398 µM"

[[record]]
smiles_entry = "Cc1cc(=O)oc2c1cc(Br)c1occ(C)c12"
property_name = "IC50"
experimental_result = "> 800 µM"


###

System: IL-8 mRNA
Assay: RT-qPCR quantification of IL-8 mRNA in TNF-α-induced IB3-1 cells
Format: cell-based, human
Conditions: Homo sapiens, IB3-1, 24 h, TNF-α-induced IB3-1 cells, 10 μM compound, RT-qPCR; na = not active at the used concentrations
Threshold rule: inhibition at 10 µM greater than or equal to 70% is 1.0; below that, 0.0.

[[record]]
smiles_entry = "Cc1oc2c(c(C)cc3oc(=O)cc(C)c32)c1C"
class = 0.0

[[record]]
smiles_entry = "C=CCc1c(O)c(C)cc2c(CO)cc(=O)oc12"
class = 1.0

[[record]]
smiles_entry = "Cc1cc2oc(=O)cc(C)c2c2c1C=CCO2"
class = 1.0

[[record]]
smiles_entry = "Cc1coc2c1c1occ(C)c1c1oc(=O)cc(C)c21"
class = 0.0

[[record]]
smiles_entry = "Cc1oc2c(C)cc3c(C)cc(=O)oc3c2c1CO"
class = 0.0


###

Biological target: NF-κB p50 (Homo sapiens, UniProt P19838)
Construct: This assay was performed using purified NF-κB p50; purchased Promega
Sequence (P19838 1-433 limits assumed): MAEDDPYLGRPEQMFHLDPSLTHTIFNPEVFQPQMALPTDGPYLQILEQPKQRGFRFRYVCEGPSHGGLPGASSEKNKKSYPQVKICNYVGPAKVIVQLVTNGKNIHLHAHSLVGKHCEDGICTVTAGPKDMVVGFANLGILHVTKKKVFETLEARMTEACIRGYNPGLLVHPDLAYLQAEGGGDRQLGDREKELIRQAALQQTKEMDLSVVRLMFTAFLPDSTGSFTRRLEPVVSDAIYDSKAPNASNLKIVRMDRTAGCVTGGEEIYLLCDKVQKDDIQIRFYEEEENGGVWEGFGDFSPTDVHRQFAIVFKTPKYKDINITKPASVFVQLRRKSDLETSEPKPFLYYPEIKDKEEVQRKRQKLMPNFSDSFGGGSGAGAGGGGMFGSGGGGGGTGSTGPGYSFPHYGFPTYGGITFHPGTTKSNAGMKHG
Experiment: EMSA, inhibition of NF-κB/DNA interactions
Type: binding
Conditions: NF-κB p50 and 32P-labeled NF-κB oligonucleotide, MIC = minimal inhibitory concentration, 12.5 μM was the lowest concentration used
property name: Inhibition of NF-κB/DNA complex (MIC)

[[record]]
compound = "Cc1cc2c(C)cc3oc(=O)cc(C)c3c2o1 [Compound 33]"
target_of_assay = "NF-κB p50 (Homo sapiens, UniProt P19838)"
property_name = "Inhibition of NF-κB/DNA complex (MIC)"
experimental_result = "12.5 to 25 µM"

[[record]]
compound = "Cc1cc2c(CO)cc(=O)oc2cc1O [Compound 37]"
target_of_assay = "NF-κB p50 (Homo sapiens, UniProt P19838)"
property_name = "Inhibition of NF-κB/DNA complex (MIC)"
experimental_result = "12.5 to 25 µM"

[[record]]
compound = "Cc1cc(=O)oc2c1cc(Br)c1occ(C)c12 [Compound 13]"
target_of_assay = "NF-κB p50 (Homo sapiens, UniProt P19838)"
property_name = "Inhibition of NF-κB/DNA complex (MIC)"
experimental_result = "12.5 µM"

[[record]]
compound = "Cc1cc(=O)oc2c1cc(C)c1occ(CBr)c12 [Compound 5]"
target_of_assay = "NF-κB p50 (Homo sapiens, UniProt P19838)"
property_name = "Inhibition of NF-κB/DNA complex (MIC)"
experimental_result = "12.5 to 25 µM"

[[record]]
compound = "Cc1coc2c1c(C)cc1oc(=O)cc(C)c12 [Compound 32]"
target_of_assay = "NF-κB p50 (Homo sapiens, UniProt P19838)"
property_name = "Inhibition of NF-κB/DNA complex (MIC)"
experimental_result = "<12.5 (^∗) μM"

[[record]]
compound = "O=c1cc(CO)c2ccc3sccc3c2o1 [Compound 16]"
target_of_assay = "NF-κB p50 (Homo sapiens, UniProt P19838)"
property_name = "Inhibition of NF-κB/DNA complex (MIC)"
experimental_result = "25 to 50 µM"

[[record]]
compound = "Cc1cc2ccc(=O)oc2c2c(C)coc12 [Compound 6]"
target_of_assay = "NF-κB p50 (Homo sapiens, UniProt P19838)"
property_name = "Inhibition of NF-κB/DNA complex (MIC)"
experimental_result = "> 100 µM"

[[record]]
compound = "Cc1cc2c(CO)cc(=O)oc2c2c(C)coc12 [Compound 8]"
target_of_assay = "NF-κB p50 (Homo sapiens, UniProt P19838)"
property_name = "Inhibition of NF-κB/DNA complex (MIC)"
experimental_result = "25 to 50 µM"

[[record]]
compound = "Cc1cc(=O)oc2c1cc(C)c1occc12 [Compound 4]"
target_of_assay = "NF-κB p50 (Homo sapiens, UniProt P19838)"
property_name = "Inhibition of NF-κB/DNA complex (MIC)"
experimental_result = "75 µM"

[[record]]
compound = "Cc1oc2c(c(C)cc3oc(=O)cc(C)c32)c1C [Compound 34]"
target_of_assay = "NF-κB p50 (Homo sapiens, UniProt P19838)"
property_name = "Inhibition of NF-κB/DNA complex (MIC)"
experimental_result = "<12.5 (^∗) μM"

[[record]]
compound = "Cc1cc(=O)oc2c1ccc1oc(CN)cc12 [Compound 26]"
target_of_assay = "NF-κB p50 (Homo sapiens, UniProt P19838)"
property_name = "Inhibition of NF-κB/DNA complex (MIC)"
experimental_result = "50 to 100 µM"

